- System: NCI/ADR-RES ovarian
- test.protocol: NCI tumour cell line growth inhibition, 48 h
measure: GI50

[
  {
    "compound": "COc1ccc(C2NC(=O)c3cc4c(cc3N2)OCO4)cc1 (configuration not stated)",
    "observed.measurement": "0.508 µM"
  },
  {
    "compound": "COc1cc2nccc(Oc3ccc(NC(=O)C4(C(=O)Nc5ccc(F)cc5)CC4)cc3)c2cc1OC(=O)c1ccc(N)cc1",
    "observed.measurement": "3.74 µM"
  },
  {
    "compound": "Oc1ccc2c(c1)OCC1(O)Cc3cc(O)c(O)cc3C21 (configuration not stated)",
    "observed.measurement": "29.6 µM"
  },
  {
    "compound": "CCOC(=O)c1cc(C(=O)c2cc(OC)c(OC)c(OC)c2)n2nc(C)ccc12",
    "observed.measurement": "0.123 µM"
  },
  {
    "compound": "Cn1cc(C2=C(n3ccc4ccccc43)C(=O)NC2=O)c2ccccc21",
    "observed.measurement": "> 25 µM"
  },
  {
    "compound": "NS(=O)(=O)c1ccc(N=Nc2c(O)[nH]c3ccc(Cl)cc23)cc1",
    "observed.measurement": "24.5 µM"
  },
  {
    "compound": "Nc1c(C(=O)N/N=C/c2ccco2)cnn1-c1ccnc2c(C(F)(F)F)cccc12",
    "observed.measurement": "20.6 µM"
  },
  {
    "compound": "O=C(NNC(=O)c1ccccc1S)c1ccccc1S",
    "observed.measurement": "25.9 µM"
  },
  {
    "compound": "CC(C)(C(=O)NCC(F)(F)C(F)(F)F)C(=O)N[C@@H]1C(=O)Nc2ccccc2-c2ccccc21",
    "observed.measurement": "42.4 µM"
  },
  {
    "compound": "COc1ccc(CCc2nc3cc(-c4c(C)noc4C)ccc3n2CCN2CCOCC2)cc1",
    "observed.measurement": "27.9 µM"
  },
  {
    "compound": "COc1ccc2nc3c(n2c1)C(=O)C(=O)c1ccccc1-3",
    "observed.measurement": "2.06 µM"
  },
  {
    "compound": "Fc1ccc(-c2ncn(C3CCNCC3)c2-c2ccnc(Oc3cccc(C(F)(F)F)c3)n2)cc1",
    "observed.measurement": "4.27 µM"
  },
  {
    "compound": "CCCCCCCCCCCCCCCC(=O)Nc1ccn([C@@H]2O[C@H](CO)[C@@H](O)[C@@H]2C#N)c(=O)n1",
    "observed.measurement": "18.4 µM"
  },
  {
    "compound": "O=c1cc(/C=C/c2ccc(O)c(O)c2)cc(/C=C/c2ccc(O)c(O)c2)o1",
    "observed.measurement": "12 µM"
  },
  {
    "compound": "CCCCCCCCn1ccc2cc(NC(=O)Cn3cc(CN4CCN(CC)CC4)nn3)ccc21",
    "observed.measurement": "12.2 µM"
  },
  {
    "compound": "C#CCNCCCN1C(=O)c2ccc3c4c(ccc(c24)C1=O)C(=O)N(CCCNCC#C)C3=O",
    "observed.measurement": "0.467 µM"
  },
  {
    "compound": "C#CC#CC#CC#CC#CC#CC#CC#CC[C@@H]1OC[C@H](COC(=O)O[C@@H](C(=O)O[C@H]2C[C@@]3(O)[C@@H](OC(=O)c4ccccc4)[C@@H]4[C@]5(OC(C)=O)CO[C@@H]5C[C@H](O)[C@@]4(C)C(=O)[C@H](OC(C)=O)C(=C2C)C3(C)C)[C@@H](NC(=O)c2ccccc2)c2ccccc2)O1",
    "observed.measurement": "> 25 µM"
  }
]
